Tested on: U87MG (human glioblastoma astrocytoma)
Test: SRB Cell Cytotoxicity Assay
Assay type: cell-based
Conditions: U-87 MG, treated for 72h, read-out: Concentration of test compounds at which the cell growth is inhibited by 50 % U87MG
The following molecules are listed with their measured EC50 values.

Observe how each entry below is paired with its result.
{"columns": ["molecule", "EC50"],
 "data": [
  ["Cc1ccc(C(=O)Nc2ccc(S(=O)(=O)O)c3cc(S(=O)(=O)O)cc(S(=O)(=O)O)c23)cc1NC(=O)c1cccc(NC(=O)Nc2cccc(C(=O)Nc3cc(C(=O)Nc4ccc(S(=O)(=O)O)c5cc(S(=O)(=O)O)cc(S(=O)(=O)O)c45)ccc3C)c2)c1 [Suramin, reference compound]", "> 10000 nM"],
  ["O=C(Nc1cccc(-c2nc3ccccc3[nH]2)c1)c1ccc(Oc2ccc(C(=O)Nc3cccc(-c4nc5ccccc5[nH]4)c3)cc2)cc1", "> 2500 nM"],
  ["O=C(Nc1ccc2c(O)c(N=Nc3ccc(N=Nc4ccc(S(=O)(=O)O)cc4)cc3S(=O)(=O)O)c(S(=O)(=O)O)cc2c1)Nc1ccc2c(O)c(N=Nc3ccc(N=Nc4ccc(S(=O)(=O)O)cc4)cc3S(=O)(=O)O)c(S(=O)(=O)O)cc2c1", "> 10000 nM"],
  ["O=C(O)/C=C/C(=O)Nc1ccc(Sc2ccc(Oc3ccc(Sc4ccc(NC(=O)/C=C/C(=O)O)cc4)cc3)cc2)cc1", "> 2500 nM"],
  ["COc1cc(N=Nc2cc(S(=O)(=O)O)cc3cc(S(=O)(=O)O)cc(O)c23)c(C)cc1NC(=O)Nc1cc(C)c(N=Nc2cc(S(=O)(=O)O)cc3cc(S(=O)(=O)O)cc(O)c23)cc1OC", "> 10000 nM"],
  ["CC(C)(c1ccc(Oc2ccc3c(c2)C(=O)N(c2cccc(C(=O)O)c2)C3=O)cc1)c1ccc(Oc2ccc3c(c2)C(=O)N(c2cccc(C(=O)O)c2)C3=O)cc1", "> 2500 nM"]
]}

Attention now turns to another entry.
INPUT: Field request: EC50 | item: O=C(O)c1ccc(Oc2cccc(N3C(=O)c4ccc(Oc5ccc6c(c5)C(=O)N(c5cccc(Oc7ccc(C(=O)O)c(C(=O)O)c7)c5)C6=O)cc4C3=O)c2)cc1C(=O)O
OUTPUT: > 2500 nM

Values from patent EP3381906A1
